The reported measurements were obtained from PubChem BioAssay.

- MEASURED ON: Dickkopf-related protein 1 (Homo sapiens) (UniProt O94907)
- Sequence (O94907 whole entry, looked up): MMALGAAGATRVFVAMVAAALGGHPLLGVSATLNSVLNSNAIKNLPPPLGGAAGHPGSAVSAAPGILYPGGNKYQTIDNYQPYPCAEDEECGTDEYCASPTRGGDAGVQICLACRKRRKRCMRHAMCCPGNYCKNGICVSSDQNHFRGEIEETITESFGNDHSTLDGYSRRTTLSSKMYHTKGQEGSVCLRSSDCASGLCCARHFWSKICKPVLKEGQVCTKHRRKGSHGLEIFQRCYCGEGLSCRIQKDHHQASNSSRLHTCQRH
- PROTOCOL DESCRIPTION: DKK1 binders on small-molecule microarrays, primary screen, biochemical, small-molecule microarray, 635 nm fluorescence scan (AID 1106);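 note: score merges emission near 667 nm with signal to noise over three replicate slides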
- STUDY CONDITIONS: DKK1 binding, higher = more signal

{"COMPOUND": "O=C1O[C@H](c2ccccc2)[C@H](c2ccccc2)N2[C@H]1[C@@H](C(=O)N1CCN(c3ncccn3)CC1)[C@]1(C(=O)Nc3ccc(C#CC4(O)CCCCCC4)cc31)[C@H]2c1ccc(OCCO)cc1", "MEASURED ON": "Dickkopf-related protein 1 (Homo sapiens) (UniProt O94907)", "composite z-score": 1.42}
{"COMPOUND": "C=CCNC(=O)[C@H]1[C@@H]2C(=O)O[C@@H](c3ccccc3)[C@@H](c3ccccc3)N2[C@@H](c2ccc(O)cc2)[C@]12C(=O)Nc1ccc(C#CC3(O)CCCCCC3)cc12", "MEASURED ON": "Dickkopf-related protein 1 (Homo sapiens) (UniProt O94907)", "composite z-score": 0.0926}
{"COMPOUND": "CC(C)(C)N1CC=CC23O[C@@H]4C=CCCOC(=O)C4[C@H]2C(=O)N(CCO)[C@@H]3C1=O (stereo partly drawn)", "MEASURED ON": "Dickkopf-related protein 1 (Homo sapiens) (UniProt O94907)", "composite z-score": -0.492}

====

z-score values, listed per item
- PROTOCOL DESCRIPTION: E. coli acrAB mutant growth effects, primary screen, E. coli filamentation inducers, strain DRC39, OD650, 24 h (AID 1178);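 note: growth measured as culture turbidity by optical density at 650 nm; test concentration not given here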
- STUDY CONDITIONS: higher = more signal, called active from +8 up or from −8 down

{"COMPOUND": "COc1ccc([Si](C)(C)[C@H]2[C@H](CC(=O)N(CCO)Cc3ccccc3)O[C@@]3(C(=O)N(Cc4cccc(N5CCOC5=O)c4)c4ccccc43)[C@@H]2C)cc1", "z-score": -0.566}
{"COMPOUND": "COC(=O)c1ccc([C@H](NC(=O)c2ccco2)[C@]2(C)C[C@H]2C2CCCCC2)cc1", "z-score": -0.827}
{"COMPOUND": "C=C(COC)C(=O)CC[C@@H](OC(=O)c1cccnc1)c1ccc(OCCO)cc1", "z-score": 0.864}
{"COMPOUND": "CC1CC/C=C\\[C@H]2OC34C=CCN(c5ccc(Cl)cc5)C(=O)[C@H]3N(CCCCCO)C(=O)[C@]4(C)C2C(=O)O1 (some centres not stated)", "z-score": -0.113}
{"COMPOUND": "COCCCNC(=O)[C@@]1(Sc2ccc(C)cc2)CC(=O)N(C2CCCCC2)[C@@H]1c1ccc(CO)cc1", "z-score": 0.235}
{"COMPOUND": "CCCC[C@@H]1C[C@H]1[C@@H](NC(=O)c1cccs1)c1ccc(C(F)(F)F)cc1", "z-score": -0.82}
{"COMPOUND": "COc1ccc([Si](C)(C)[C@@H]2[C@@H](CC(=O)N(CCO)Cc3ccccc3)O[C@]3(C(=O)N(Cc4cccc(N5CCOC5=O)c4)c4ccccc43)[C@H]2C)cc1", "z-score": 0.577}

====

// reported composite z-score per item
- MEASURED ON: Albumin (Bos taurus)
- PROTOCOL DESCRIPTION: bovine serum albumin binders on microarray, profiling panel, artefact control for SMM control protein annotation, biochemical, small-molecule microarray, Alexa647 label, 635/667 nm fluorescence (AID 1118);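 note: score merges 667 nm emission intensity and signal-to-noise per printed compound spot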
- STUDY CONDITIONS: BSA-A647 binding, fluorescence 635 nm, higher = more signal

{"COMPOUND": "NCCCCCCNC(=O)[C@@H]1C[C@@H]2C(=O)N[C@@H](CCCCN)C(=O)N2[C@@H]1c1cccc(OCCO)c1", "composite z-score": -0.907}
{"COMPOUND": "CC(=O)NCCCC[C@@H]1NC(=O)[C@H]2C[C@@H](C(=O)NCCCC[N+](C)(C)C)[C@@H](c3cccc(OCCO)c3)N2C1=O", "composite z-score": -1.1}
{"COMPOUND": "CN(C)CCCNC(=O)[C@@]1(c2ccc([N+](=O)[O-])cc2)CC(=O)N(CC23CC4CC(CC(C4)C2)C3)[C@@H]1c1ccc(CO)cc1I", "composite z-score": 0.685}
{"COMPOUND": "CC(c1ccccc1)C(O)C1C=CC2C(=O)N(c3ccccc3)C(=O)C2N1Nc1ccc([N+](=O)[O-])cc1 (configuration not stated)", "composite z-score": 0.903}
{"COMPOUND": "NC(=O)NCC#Cc1ccc2c(c1)[C@]1(C(=O)N2)[C@H](C(=O)NC[C@H](O)c2ccccc2)[C@H]2C(=O)O[C@H](c3ccccc3)[C@H](c3ccccc3)N2[C@@H]1c1ccc(OCCO)cc1", "composite z-score": -0.397}
{"COMPOUND": "[N-]=[N+]=NCc1ccccc1[C@@H]1OC(c2ccc(OCCCO)cc2)=N[C@]1(CCS(=O)(=O)c1ccccc1)C(=O)NCC(O)CO (some centres not stated)", "composite z-score": 0.979}
{"COMPOUND": "COc1ccc(CCN2C(=O)[C@@]3(Cc4ccccc42)c2ccccc2C(=O)N(Cc2ccccc2OC)[C@H]3c2ccc(CO)cc2)cc1", "composite z-score": 0.282}

====

- PROTOCOL DESCRIPTION: CREB reporter modulators without forskolin, primary screen, cell-based, PC12, CRE-LacZ reporter, unstimulated (AID 1145)
- STUDY CONDITIONS: no forskolin, luminescence, 4.5 h, higher = more signal, called active from +8 up or from −8 down
MEASUREMENT KIND: z-score

{"COMPOUND": "O=C(NCc1ccccc1)[C@@H]1c2ccccc2C(=O)N(Cc2ccccc2C(F)(F)F)[C@H]1c1ccc(CO)cc1", "MEASUREMENT KIND": "z-score", "QUANTITATIVE READOUT": 0.324}
{"COMPOUND": "Cn1cccc1C(O)C1C=CC2C(=O)NC(=O)C2N1Nc1ccc(Cl)cc1Cl (configuration not stated)", "MEASUREMENT KIND": "z-score", "QUANTITATIVE READOUT": 0.812}
{"COMPOUND": "O=C1O[C@H](c2ccccc2)[C@H](c2ccccc2)N2[C@H]1[C@@H](C(=O)NC[C@H](O)c1ccccc1)[C@]1(C(=O)Nc3ccc(C#CCCO)cc31)[C@H]2c1ccc(OCCO)cc1", "MEASUREMENT KIND": "z-score", "QUANTITATIVE READOUT": 0.299}
{"COMPOUND": "COCCOC(=O)N1C(=O)[C@@]2(c3cc(C#CC4(O)CCCCCC4)ccc31)[C@H](c1ccc(O)cc1)N1[C@H](c3ccccc3)[C@H](c3ccccc3)OC(=O)[C@H]1[C@@H]2C(=O)NC[C@H](O)c1ccccc1", "MEASUREMENT KIND": "z-score", "QUANTITATIVE READOUT": 0.712}
{"COMPOUND": "CN(C)CCCNC(=O)[C@@]1(C)c2ccccc2C(=O)N(Cc2ccccc2)[C@H]1c1ccc(CO)cc1", "MEASUREMENT KIND": "z-score", "QUANTITATIVE READOUT": 0.389}
{"COMPOUND": "C=CCC(OC(C)=O)[C@@H]1[C@@H](N(Cc2cc3ccccc3o2)C(=O)c2ccc(C)cc2)c2cc(OCCCO)ccc2N1C(=O)Cc1ccc(OC)cc1 (some centres not stated)", "MEASUREMENT KIND": "z-score", "QUANTITATIVE READOUT": 0.558}
{"COMPOUND": "CN(C)C(=O)[C@@]1(Cc2ccccc2CN=[N+]=[N-])N=C(c2ccc(OCCCO)cc2)O[C@H]1c1ccccc1CN=[N+]=[N-]", "MEASUREMENT KIND": "z-score", "QUANTITATIVE READOUT": 2.69}

====

- PROTOCOL DESCRIPTION: modulators of S6 phosphorylation in cells, primary screen, cell-based, A549, cytoblot, luminescence, serum-stimulated (AID 1158);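 note: serum-stimulated A549 lung adenocarcinoma cells; signal is phosphorylated S6 detected by cytoblot immunostaining with HRP secondary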
- STUDY CONDITIONS: A549 phospho-S6 cytoblot, 5 h, higher = more signal

{"COMPOUND": "O=C(NCC(F)(F)F)[C@@H]1c2ccccc2C(=O)N(Cc2ccccc2C(F)(F)F)[C@H]1c1ccc(CO)cc1", "z-score": -0.537}
{"COMPOUND": "COC(=O)[C@@]1(Cc2ccc(OC)cc2)[C@H]2c3cc(C(=O)N4CCCC4)n(Cc4cccc5ccccc45)c3C[C@H]2CN1C(=O)c1ccccc1", "z-score": 0.0019}
{"COMPOUND": "C=CCC(OC(C)=O)[C@@H]1[C@@H](N(Cc2ccc(-c3ccccc3)cc2)C(=O)Cc2ccc(F)cc2)c2cc(OCCCO)ccc2N1C(=O)Cc1ccc(OC)cc1 (some centres undefined)", "z-score": -0.152}
{"COMPOUND": "COCCOC(=O)N1C(=O)[C@@]2(c3ccccc31)[C@H](C(=O)N1CCN(c3ncccn3)CC1)[C@H]1C(=O)O[C@H](c3ccccc3)[C@H](c3ccccc3)N1[C@@H]2c1ccc(O)cc1", "z-score": 0.0481}
{"COMPOUND": "C=C(COC)C(=O)CC[C@@H](OC(=O)c1cccnc1)c1ccc(OCCO)cc1", "z-score": -0.482}
{"COMPOUND": "CC(C)C(CO)N1C(=O)[C@@H]2C3C(=O)OCCC/C=C\\[C@H]3OC23C=CCN(C(C)(C)C)C(=O)[C@@H]13 (some centres undefined)", "z-score": -0.668}
{"COMPOUND": "COCCOC(=O)N1C(=O)[C@@]2(c3cc(C#CC4=CCCCC4)ccc31)[C@H](c1ccccc1OCCO)N1[C@H](c3ccccc3)[C@H](c3ccccc3)OC(=O)[C@H]1[C@@H]2C(=O)N1CCCCCCC1", "z-score": -0.56}
{"COMPOUND": "CC(C)N1C(=O)c2ccccc2[C@@H](C(=O)NC2CC2)[C@@H]1c1ccc(CO)cc1", "z-score": 0.167}
{"COMPOUND": "Cc1cc(C)cc(N2C(=O)CSC2c2cccc([N+](=O)[O-])c2)c1 (centres undefined)", "z-score": -0.261}
